FYI, the data here is from ChEMBL document CHEMBL2218924.

biological target: Serine/threonine-protein kinase Chk2 (Homo sapiens); conditions: at 10 µM
The reader will find reported residual activity values listed item by item below.
Report as a plain number; the unit % is understood.

Cn1sc(=O)n(Cc2ccccc2)c1=O	67
O=C1Nc2ccccc2/C1=C\c1c(Cl)[nH]c2ccccc12	41
Fc1ccc(-c2nc3n(c2-c2ccncc2)CCS3)cc1	88

# input for lookup
Incoming: Return reported residual activity. Input compound: CN([C@@H](Cc1ccc(OS(=O)(=O)c2cccc3cnccc23)cc1)C(=O)N1CCN(c2ccccc2)CC1)S(=O)(=O)c1cccc2cnccc12
Outgoing: 79

====

biological target: Tyrosine-protein kinase receptor UFO (Homo sapiens) (UniProt P30530); conditions: at 10 µM
Sequence (P30530 whole entry): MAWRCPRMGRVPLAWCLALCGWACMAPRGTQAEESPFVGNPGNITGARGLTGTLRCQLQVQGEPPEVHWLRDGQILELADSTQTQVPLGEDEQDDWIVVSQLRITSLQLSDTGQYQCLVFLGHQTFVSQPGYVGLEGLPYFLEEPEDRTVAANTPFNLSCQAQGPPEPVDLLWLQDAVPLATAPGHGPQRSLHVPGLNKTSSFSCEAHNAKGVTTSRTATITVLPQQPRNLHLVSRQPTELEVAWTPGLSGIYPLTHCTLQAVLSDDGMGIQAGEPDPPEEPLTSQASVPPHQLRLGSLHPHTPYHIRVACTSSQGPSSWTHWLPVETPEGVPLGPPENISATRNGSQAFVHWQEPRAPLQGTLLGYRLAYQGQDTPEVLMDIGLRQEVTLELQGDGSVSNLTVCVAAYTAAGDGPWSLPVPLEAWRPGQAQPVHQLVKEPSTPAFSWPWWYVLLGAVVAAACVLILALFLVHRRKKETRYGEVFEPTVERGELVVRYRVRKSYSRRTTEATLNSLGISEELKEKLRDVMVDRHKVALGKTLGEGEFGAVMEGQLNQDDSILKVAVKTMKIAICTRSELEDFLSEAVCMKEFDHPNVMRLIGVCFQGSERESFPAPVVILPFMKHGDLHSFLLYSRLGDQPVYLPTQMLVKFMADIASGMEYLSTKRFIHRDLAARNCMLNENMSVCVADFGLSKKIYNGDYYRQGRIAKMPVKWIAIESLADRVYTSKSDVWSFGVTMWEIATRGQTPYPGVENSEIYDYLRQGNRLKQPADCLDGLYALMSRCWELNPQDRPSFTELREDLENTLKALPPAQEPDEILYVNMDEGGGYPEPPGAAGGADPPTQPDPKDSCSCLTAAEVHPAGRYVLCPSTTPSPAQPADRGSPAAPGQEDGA
hey, just use Fulfilled if measured residual activity is less than 70%, otherwise Not fulfilled

Past entries and their recorded results:
CC(C)[C@H](CO)Nc1nc(Nc2cc(N)cc(Cl)c2)c2ncn(C(C)C)c2n1	Fulfilled
COc1ccc2c(c1)c(C1=C(c3c[nH]c4ccccc34)C(=O)NC1=O)cn2CCCN(C)C	Fulfilled
CN(C)S(=O)(=O)c1ccc2c(c1)/C(=C/c1cc3c([nH]1)CCCC3)C(=O)N2	Fulfilled
NC(=O)c1cccc(-c2cc(Nc3ccc(OC(F)(F)F)cc3)ncn2)c1	Not fulfilled
CCCC(=O)Oc1ccc2[nH]c(C(=O)c3cc4ccccc4[nH]3)cc2c1	Not fulfilled
CC(C)N(CCC(=O)c1ccc2ccccc2c1)Cc1ccccc1	Not fulfilled
Oc1cccc(-c2nc(N3CCOCC3)c3oc4ncccc4c3n2)c1	Not fulfilled
CC(C)c1nn(-c2c(Cl)cccc2Cl)c2nc(Cc3ccc(OCCO)cc3)[nH]c(=O)c12	Not fulfilled
O=C(O)/C=C/c1cc(Br)c(Br)c(Br)c1Br	Fulfilled
CC(C)(C)c1nc2c3ccc(F)cc3c3c(=O)[nH]ccc3c2[nH]1	Fulfilled

Incoming: Regarding COc1cc2c(cc1OC)-c1n[nH]c(Nc3cccc(F)c3)c1C2 , kindly confirm whether its residual activity is beneath 70%.
Outgoing: Fulfilled

Incoming: Strictly below 70%: is that where residual activity of CCN(CC)CCNC(=O)c1c(C)[nH]c(/C=C2\C(=O)Nc3ccc(Cl)cc32)c1C sits?
Outgoing: Fulfilled

Incoming: Find out if reported residual activity for O=C(CCCc1ccc(-c2ccccc2F)cc1)Nc1ccc(O)cc1 is less than 70%
Outgoing: Not fulfilled

Incoming: Report whether reported residual activity is lower than 70% (strictly) for O=C1NC(=O)C(c2cn(CCCn3ccnc3)c3ccccc23)=C1Nc1ccccc1
Outgoing: Fulfilled

Incoming: hey, is residual activity for Cn1sc(=O)n(Cc2ccccc2)c1=O lower than 70% or not?
Outgoing: Fulfilled

Incoming: Consider O=C1Nc2ccccc2/C1=C\c1c(Cl)[nH]c2ccccc12 . Does its residual activity lie strictly below 70%?
Outgoing: Fulfilled

Incoming: Lab log: compare recorded residual activity with 70%; is it strictly lower for O=c1cc(N2CCNCC2)oc2c(-c3ccccc3)cccc12 ?
Outgoing: Not fulfilled

Incoming: Please let me know if O=C(Nc1nc2ccccc2n1CCN1CCOCC1)c1cccc([N+](=O)[O-])c1 shows residual activity below 70%.
Outgoing: Not fulfilled
